B1: library; numbered along this chain (parent)
chain: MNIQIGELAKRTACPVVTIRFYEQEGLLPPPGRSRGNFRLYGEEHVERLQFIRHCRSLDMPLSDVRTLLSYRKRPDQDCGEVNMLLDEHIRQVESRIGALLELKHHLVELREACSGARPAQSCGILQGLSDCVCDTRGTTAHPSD

# Variants of: B1
# experiment_description: sfGFP reporter fluorescence (15 h) (µM FITC); higher = stronger transcriptional activation
# condition_info: library round: Round 0; ligand: 1 µM Pb
attribute_measured: sfGFP reporter fluorescence

Worked cases, answers included:
[[record]]
seq_text = "MNHQIGELAKRTACPVVTIRFYEQEGLLPPPGRSRGNFRLYGEEHVERLQFIRHCRSLDMPLSDVRTLLSYRKRPDQDCGEVNMLLDEHIRQVESRIGALLELKHHLVELREACSGARPAQSCGILQGLSDCVCDTRGTTAHPSD [I3H]"
result = 0.0707

[[record]]
seq_text = "MNIQIGELAKRTACPVVTIRFYEQEGLLPPPGRSRGNFRLYGEEHVERLQFIRHCRSLDMPLSDVRTLLSYRKRPDQDCGEVNMLLDEHIRQVESRIGALLELKHHLVELRGACSGARPAQSCGILQGLSDCVCDTRGTTAHPSD [E112G]"
result = 0.0847

[[record]]
seq_text = "MNIQIGELAKRTACPVVTIRFYEQEGLLPPPGRSRGNFRLYGEEHVERLQFIRHCRSLDMPLSDVRTLLSYRKRPDQDCGEVNMLLDEHIRQVESRIGALLELKHHLVSLREACSGARPAQSCGILQGLSDCVCDTRGTTAHPSD [E109S]"
result = 0.0803

[[record]]
seq_text = "MNIQIGELAKRTACPVVTIRFYEQEGLLPPPGRSRGNFRLYGEEHVERLQFIRHCRSLDMPLSDVRTLLSYRKRPDQDCGEVNMLLDEHIRQVESRIGALLELKHHLAELREACSGARPAQSCGILQGLSDCVCDTRGTTAHPSD [V108A]"
result = 0.0729

[[record]]
seq_text = "MNIQIGELAKRTACPVVTIRFYEQEGLLPPPGRSRGNFRLYGEEHVERLQFIRHCRSLDMPLSDVRTLLSYRKRPDQDCGEVNMLLDEEIRQVESRIGALLELKHHLVELREACSGARPAQSCGILQGLSDCVCDTRGTTAHPSD [H89E]"
result = 0.0795


Provide the reported sfGFP reporter fluorescence of each entry below, same order.
1. MNIQIGELAKRTACPVVTIRFYEQEGLLPPPGRSRGNFRLYGEEHVERLQFIRHCRSLDMPLSDVRTLLSYRKRPDQDCGEVNMLLDEHTRQVESRIGALLELKHHLVELREACSGARPAQSCGILQGLSDCVCDTRGTTAHPSD [I90T]
2. MNIQIGELAKRTACPVVTIRFYEQEGLLPPPGRSRGNFRLYGEEHVERLQFIRHCRSLDMPLSDVRTLLSYRKRPDQDCGEVNMLLDEHIRQVESRIGALLELKHHLYELREACSGARPAQSCGILQGLSDCVCDTRGTTAHPSD [V108Y]

Solution:
1: 0.0795; 2: 0.108
